- SYSTEM_NAME: T1, human MSLN-R3 protein (Met487-Ser606 of NCBI AAH09272.1) expressed on HEK293T-hMSLN-R3 cells (human, UniProt Q13421 487-606)
- T1 construct: also called Region3
- ASSAY_SUMMARY: FACS on HEK293T-hMSLN-R3 cells

BINDER	EC50
S009-F3.74.20 (antibody, human IgG1, kappa, V domains shown, human-murine chimeric antibody, human IgG1/kappa constant regions) VH: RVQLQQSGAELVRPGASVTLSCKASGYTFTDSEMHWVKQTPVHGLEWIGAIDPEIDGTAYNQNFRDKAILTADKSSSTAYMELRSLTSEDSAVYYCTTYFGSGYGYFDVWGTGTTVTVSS VL: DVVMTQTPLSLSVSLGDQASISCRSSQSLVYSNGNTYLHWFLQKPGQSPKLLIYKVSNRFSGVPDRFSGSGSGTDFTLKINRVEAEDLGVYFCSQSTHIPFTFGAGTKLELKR	620 pM
